Test system: membrane potential response (non-specific ion channel blockers or enhancers)
experiment-notes: KCl counterscreen (membrane potential response, 10 mM KCl instead of ATP)
Format: cell-based
test-settings: Homo sapiens, 10 μM compound, read-out: KCl Counterscreen (percent inhibition)
Provide the recorded inhibition at 10 µM for the entries that follow.
Please state the figure in %; there is no need to write the unit.

inhibition at 10 µM of CCc1ccc(-c2csc(NC(=O)c3cc(OC)cc(OC)c3)n2)cc1 on membrane potential response (non-specific ion channel blockers or enhancers)?
-101

Entry CC1(C)C(c2ccccc2)=NC(c2ccccc2)=[N+]1[O-] please
17

Entry CCOC(=O)C/N=c1\sc2ccccc2n1C please
10

Entry COC(=O)c1sccc1Oc1ccc([N+](=O)[O-])cn1 please
17

Entry O=c1sc2ccccc2c2c1ncn2-c1ccccc1 please
-9

Entry Cn1nc(C(F)(F)F)c(C(=O)Nc2ccc(C(F)(F)F)cc2)c1Cl please
-25

Entry CCc1nnc2nc(-c3ccc(Cl)c([N+](=O)[O-])c3)[nH]n12 please
-32

Entry CCn1c(C)nc([N+](=O)[O-])c1Sc1ccc(Cl)cn1 please
7

Entry COc1cccc(OC)c1OCCSc1nc2ccccc2n1CCO please
-4

Entry C=CCNC(=S)/N=c1\sc2ccccc2n1C please
1
